test system: Rhizopus arrhizus; test: Antifungal activity against Rhizopus oryzae FGSC 9543 assessed as reduction in fungal growth incubated for 48 hrs by microplate reader analysis; type: functional
Numbered stars: 1 amine (or outer) side, 2 acyl side, 3 side chain; on linkers, the order of the positions; unused ones are H or OH. Square brackets hold non-standard residues; d marks the D form. Peptide text beside a SMILES is read from it. X1 = CC[C@@H](C)[C@@H](O[*:1])C(=O)[*:2]; NMeVal(β-OH) = CN[C@H](C(=O)O)C(C)(C)O; NMeF = CN[C@@H](Cc1ccccc1)C(=O)O; aIle = CC[C@@H](C)[C@H](N)C(=O)O; NMeV = CN[C@H](C(=O)O)C(C)C
assay_metric: MFC

Known MFC results, listed for orientation:
| compound | MFC |
| --- | --- |
| CC[C@H](C)C[C@H](C)C[C@H](C)C[C@@H]1NC(=O)[C@H](C(C)C)N(C)C(=O)[C@@H]([C@H](C)CC)OC(=O)[C@H](C(C)(C)O)N(C)C(=O)[C@H](CC(C)C)NC(=O)[C@H](C(C)C)N(C)C(=O)[C@H]([C@H](C)CC)NC(=O)[C@@H]2CCCN2C(=O)CN(C)C1=O | > 10 µM |
| CC[C@@H](C)[C@@H]1NC(=O)[C@@H]2CCCN2C(=O)[C@H](Cc2ccccc2)N(C)C(=O)[C@H](Cc2ccccc2)NC(=O)[C@H](C(C)C)N(C)C(=O)[C@@H]([C@H](C)CC)OC(=O)[C@H](C(C)(C)O)N(C)C(=O)[C@H](CC(C)C)NC(=O)[C@H](C(C)C)N(C)C1=O [AUREOBASIDIN A] (cyclo(F[NMeF]P[aIle][NMeV]L[NMeVal(β-OH)][X1][NMeV])) | > 10 µM |

Let us move to another entry and its MFC.
Sample CC[C@H](C)C[C@H](C)CCCCCCCCC(=O)N[C@H]1C[C@@H](O)[C@@H](NCCN)NC(=O)[C@@H]2[C@@H](O)CCN2C(=O)[C@H]([C@H](O)CCN)NC(=O)[C@H]([C@H](O)[C@@H](O)c2ccc(O)cc2)NC(=O)[C@@H]2C[C@@H](O)CN2C(=O)[C@H]([C@@H](C)O)NC1=O [CASPOFUNGIN] — what was its MFC? > 10 µM
